Target: Mitogen-activated protein kinase 8 (Homo sapiens, UniProt P45983)
Sequence (P45983 whole entry): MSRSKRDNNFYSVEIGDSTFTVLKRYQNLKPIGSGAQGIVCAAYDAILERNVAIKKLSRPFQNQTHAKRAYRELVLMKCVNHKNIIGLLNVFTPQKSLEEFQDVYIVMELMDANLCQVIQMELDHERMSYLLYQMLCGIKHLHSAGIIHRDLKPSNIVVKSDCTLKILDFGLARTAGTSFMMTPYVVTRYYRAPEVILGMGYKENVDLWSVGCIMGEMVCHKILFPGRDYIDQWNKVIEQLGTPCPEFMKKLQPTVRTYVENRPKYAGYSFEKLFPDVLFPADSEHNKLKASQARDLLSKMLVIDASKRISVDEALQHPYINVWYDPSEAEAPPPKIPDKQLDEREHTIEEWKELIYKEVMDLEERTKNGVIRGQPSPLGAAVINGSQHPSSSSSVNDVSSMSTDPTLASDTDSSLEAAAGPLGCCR
Assay: Inhibition of JNK1 (unknown origin) using biotinylated FL-ATF-2 as substrate measured after 22 mins by homogeneous time-resolved fluorescence analysis
readout_kind: log10(IC50) (log10 of the value in µM)
The common logarithm of IC50 in µM is what is listed.

CC(=O)N1CC[C@H](NC(=O)c2cc(-n3ncc4cc(Nc5ccccc5Cl)c(F)cc43)cs2)C1: -0.20
CNC(=O)c1cc(-n2ncc3cc(Nc4ccccc4Cl)c(F)cc32)cs1: -0.21
CNC(=O)c1cc(-n2ncc3cc(Nc4ccccc4Cl)cnc32)cs1: 0.67
O=C(NC1COC1)c1cc(-n2ncc3cc(Nc4ccccc4Cl)c(F)cc32)cs1: 0.02
CC(C)NC(=O)c1cc(-n2ncc3cc(Nc4ccccc4Cl)c(F)cc32)cs1: -0.40

Input line: What value of log10(IC50) has been recorded for this entry: [2H]C([2H])([2H])N1CC[C@H](NC(=O)c2cc(-n3ncc4cc(Nc5ccccc5Cl)c(F)cc43)cs2)C1
Output line: -0.55

Input line: What value of log10(IC50) has been recorded for this entry: O=C(NC1COC1)c1cc(-n2ncc3cc(Nc4ccccc4Cl)ncc32)cs1
Output line: -0.16
